Recorded values, source patent US20240376121A1.

Listed here: items and their measured DC50.
# target.or.test.system: HiBit-BRG1 fusion protein (Homo sapiens, UniProt P51532)
# Construct: expressed in transfected cells
# Sequence (P51532 whole entry, the tested form may be a part): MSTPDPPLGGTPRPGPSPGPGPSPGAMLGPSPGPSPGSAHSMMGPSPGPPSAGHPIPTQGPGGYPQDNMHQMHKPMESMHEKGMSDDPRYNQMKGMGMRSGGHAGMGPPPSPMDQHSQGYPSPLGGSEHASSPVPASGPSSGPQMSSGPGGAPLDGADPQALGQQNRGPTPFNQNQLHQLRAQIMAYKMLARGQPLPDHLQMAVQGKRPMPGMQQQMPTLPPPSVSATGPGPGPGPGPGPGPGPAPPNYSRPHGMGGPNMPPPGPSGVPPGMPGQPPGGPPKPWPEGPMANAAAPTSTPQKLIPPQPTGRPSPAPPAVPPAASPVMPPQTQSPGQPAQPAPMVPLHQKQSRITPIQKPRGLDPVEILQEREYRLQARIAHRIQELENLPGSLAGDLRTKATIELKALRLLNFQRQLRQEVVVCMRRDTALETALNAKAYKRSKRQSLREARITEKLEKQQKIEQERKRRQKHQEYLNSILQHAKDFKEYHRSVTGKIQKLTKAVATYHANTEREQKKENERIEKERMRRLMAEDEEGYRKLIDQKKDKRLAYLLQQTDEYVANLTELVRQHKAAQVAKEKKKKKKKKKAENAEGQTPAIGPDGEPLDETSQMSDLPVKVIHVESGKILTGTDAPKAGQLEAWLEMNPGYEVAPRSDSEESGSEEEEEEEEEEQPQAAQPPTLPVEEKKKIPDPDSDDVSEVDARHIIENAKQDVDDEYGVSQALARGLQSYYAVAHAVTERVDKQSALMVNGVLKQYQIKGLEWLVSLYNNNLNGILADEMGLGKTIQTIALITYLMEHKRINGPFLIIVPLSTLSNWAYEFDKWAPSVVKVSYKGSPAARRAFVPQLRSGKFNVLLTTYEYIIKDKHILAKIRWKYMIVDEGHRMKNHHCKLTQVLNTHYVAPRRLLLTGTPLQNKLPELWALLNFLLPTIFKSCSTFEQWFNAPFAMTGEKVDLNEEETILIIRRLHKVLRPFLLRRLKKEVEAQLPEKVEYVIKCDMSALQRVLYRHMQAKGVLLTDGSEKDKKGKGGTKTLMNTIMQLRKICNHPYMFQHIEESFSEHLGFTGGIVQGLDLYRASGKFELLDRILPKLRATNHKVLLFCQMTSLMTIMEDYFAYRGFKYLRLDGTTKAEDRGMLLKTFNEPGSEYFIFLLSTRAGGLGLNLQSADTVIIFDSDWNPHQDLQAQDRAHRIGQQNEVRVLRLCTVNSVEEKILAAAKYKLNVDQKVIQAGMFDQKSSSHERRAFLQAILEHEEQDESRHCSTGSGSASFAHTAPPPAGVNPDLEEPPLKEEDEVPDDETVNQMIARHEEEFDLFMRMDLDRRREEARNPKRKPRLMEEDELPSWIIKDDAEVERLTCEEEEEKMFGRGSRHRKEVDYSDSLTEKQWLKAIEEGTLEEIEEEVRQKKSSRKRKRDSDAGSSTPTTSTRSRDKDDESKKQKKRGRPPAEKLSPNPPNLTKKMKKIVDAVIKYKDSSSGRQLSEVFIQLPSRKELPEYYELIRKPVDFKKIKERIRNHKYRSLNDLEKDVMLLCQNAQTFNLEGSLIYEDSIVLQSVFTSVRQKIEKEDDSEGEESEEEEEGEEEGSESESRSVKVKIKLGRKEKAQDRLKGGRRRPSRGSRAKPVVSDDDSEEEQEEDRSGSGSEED
# assay.overview: HiBiT-BRG1 cell-based degradation assay (Nano-Glo HiBiT Lytic Detection)
# measurement.setup: stable HeLa cell line expressing HiBit-BRG1 and LgBit, 24 h incubation; read-out: BRMG1 HiBit Degradation IC50

These solved cases illustrate the format of a correct answer.
compound	DC50
Cc1ncsc1-c1ccc([C@H](C)NC(=O)[C@@H]2C[C@@H](O)CN2C(=O)[C@@H](NC(=O)c2cnc(N3CCC(c4sc5nnc(-c6ccccc6O)cc5c4C)CC3)nc2)C(C)(C)C)cc1 [Compound 65]	≥ 1000 nM
Cc1ncsc1-c1ccc(CNC(=O)[C@@H]2C[C@@H](O)CN2C(=O)[C@@H](NC(=O)CCN2CCC(c3cc4nnc(-c5ccccc5O)cc4s3)CC2)C(C)(C)C)cc1 [Compound 78]	≥ 1000 nM

Prompt: Query: DC50; subject: Cc1ncsc1-c1ccc([C@H](C)NC(=O)[C@@H]2C[C@@H](O)CN2C(=O)[C@@H](c2cc(OCC(=O)N3CCC(c4sc5nnc(-c6ccccc6O)cc5c4C)CC3)no2)C(C)C)cc1 [Compound 93]
Response: ≥ 1000 nM

Prompt: Query: DC50; subject: Cc1ncsc1-c1ccc([C@H](C)NC(=O)[C@@H]2C[C@@H](O)CN2C(=O)[C@@H](c2cc(OCCN3CC(c4cc5cc(-c6ccccc6O)nnc5s4)C3)no2)C(C)C)cc1 [Compound 1]
Response: ≥ 1000 nM

Prompt: Query: DC50; subject: Cc1ncsc1-c1ccc([C@H](C)NC(=O)[C@@H]2C[C@@H](O)CN2C(=O)[C@@H](c2cc(N3CCC(C(=O)N4CCC(c5sc6nnc(-c7ccccc7O)cc6c5C)CC4)CC3)no2)C(C)C)cc1 [Compound 98]
Response: ≥ 1000 nM
